Tested on: MOLM-13 cells
assay-name: MOLM-13 Cellular Assay
Assay type: cell-based
reported-conditions: Homo sapiens, 72 hours exposure, cell viability by CellTiter-Glo
reported-metric: pEC50
By convention, pEC50 is the negative base-10 log of a molar concentration.

[Q] Which pEC50 reading was recorded for the molecule `Cc1ccnc(Cl)c1NC(=O)c1cc(F)c(-n2nc(CO)n(C(C)C)c2=O)nc1O[C@@H](C)C(F)(F)F` ?
[A] 8.39

[Q] If you can, please state the reported pEC50 value of `CCn1c(CO)nn(-c2nc(O[C@@H](C)C(F)(F)F)c(C(=O)Nc3c(Cl)ccnc3Cl)cc2F)c1=O` .
[A] 9.17

[Q] Look at this molecule and give its reported pEC50. `CCn1c(CO)nn(-c2nc(O[C@@H](C)C(F)(F)F)c(C(=O)Nc3c(C)cnc(OC)c3C)cc2F)c1=O`
[A] 8.96

[Q] Requested field: pEC50. Item: CCn1c(CO)nn(-c2nc(OC3CC(F)(F)C3(F)F)c(C(=O)Nc3c(F)cccc3Cl)cc2F)c1=O (racemic)
[A] 7.80

[Q] # get_value(readout='pEC50', item= `CCn1c(CO)nn(-c2nc(O[C@@H](C)C(F)(F)F)c(C(=O)Nc3c(Cl)cnc(OC)c3C)cc2F)c1=O` )
[A] 9.55

----------
target-desc: human DHODH (Homo sapiens, UniProt Q02127)
Sequence (Q02127 whole entry): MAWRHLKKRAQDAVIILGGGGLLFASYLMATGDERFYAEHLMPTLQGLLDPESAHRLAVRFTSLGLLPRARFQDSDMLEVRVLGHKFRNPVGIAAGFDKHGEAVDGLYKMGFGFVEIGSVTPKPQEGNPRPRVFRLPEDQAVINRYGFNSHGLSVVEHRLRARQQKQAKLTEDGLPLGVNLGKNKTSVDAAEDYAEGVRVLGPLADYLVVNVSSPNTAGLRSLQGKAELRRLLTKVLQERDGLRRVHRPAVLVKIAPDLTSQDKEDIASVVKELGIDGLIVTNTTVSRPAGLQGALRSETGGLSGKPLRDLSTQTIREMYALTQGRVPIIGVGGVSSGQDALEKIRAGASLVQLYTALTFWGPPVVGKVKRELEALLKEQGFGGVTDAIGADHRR
assay-name: DHODH Enzymatic Assay
reported-conditions: purified human DHODH; DCIP absorbance, end-point mode
reported-metric: EC50 (nM)
Numeric only. Scale: nM

The following compounds have reported results that may help.
| compound | target-desc | EC50, nM |
| --- | --- | --- |
| CCn1c(CO)nn(-c2nc(O[C@@H](C)C(F)(F)F)c(C(=O)Nc3cccnc3Cl)cc2F)c1=O [Example 4] | human DHODH (Homo sapiens, UniProt Q02127) | 2.8 |
| CCn1c(CO)nn(-c2nc(O[C@@H](C)C(F)(F)F)c(C(=O)Nc3c(Cl)cnc(OC)c3C)cc2F)c1=O [Example 110] | human DHODH (Homo sapiens, UniProt Q02127) | 0.367 |
| CCn1c(CO)nn(-c2nc(O[C@@H](C)C(F)(F)F)c(C(=O)Nc3cn(C)nc3Cl)cc2F)c1=O [Example 80] | human DHODH (Homo sapiens, UniProt Q02127) | 7.2 |
| CCn1c(CO)nn(-c2nc(O[C@@H](C)C(F)(F)F)c(C(=O)Nc3cc(C)ccc3Cl)cc2F)c1=O [Example 48] | human DHODH (Homo sapiens, UniProt Q02127) | 0.761 |
| CCn1c(CO)nn(-c2nc(O[C@@H](C)C(F)(F)F)c(C(=O)Nc3cc[nH]c(=O)c3Cl)cc2F)c1=O [Example 20] | human DHODH (Homo sapiens, UniProt Q02127) | 4.3 |
| CCn1c(CF)nn(-c2nc(O[C@@H](C)C(F)(F)F)c(C(=O)Nc3c(F)cccc3Cl)cc2F)c1=O [Example 3] | human DHODH (Homo sapiens, UniProt Q02127) | 0.245 |

[Q] Could you share which EC50 value was measured for CCn1c(CO)nn(-c2nc(O[C@@H](C)C(F)(F)F)c(C(=O)Nc3c(OC)cccc3OC)cc2F)c1=O [Example 119] ?
[A] 2.25

[Q] Find the recorded EC50 belonging to CCn1c(CO)nn(-c2nc(O[C@@H](C)C(F)(F)F)c(C(=O)Nc3cnc(OC)cc3Cl)cc2F)c1=O [Example 50] and report it.
[A] 0.852

----------
target-desc: human DHODH (Homo sapiens)
assay-name: DHODH Enzymatic Assay
reported-conditions: purified human DHODH; DCIP absorbance, end-point mode
reported-metric: pEC50
Note: pEC50 values are expressed as the negative base-10 logarithm of concentration in M.

[Q] Fill in the blank: the reported pEC50 of `CCn1c(CCl)nn(-c2nc(O[C@@H](C)C(F)(F)F)c(C(=O)Nc3c(F)cccc3Cl)cc2F)c1=O` is ____.
[A] 9.43

----------
System: MOLM-13 cells
assay-name: MOLM-13 Cellular Assay
Format: cell-based
reported-conditions: Homo sapiens, 72 hours exposure, cell viability by CellTiter-Glo
reported-metric: pEC50
Hey, just a heads up that pEC50 is the negative log base 10 of the concentration in molar.

| chemical-structure | pEC50 |
| --- | --- |
| CCn1c(CO)nn(-c2nc(O[C@@H](C)C(F)(F)F)c(C(=O)Nc3c(Cl)ccnc3C)cc2F)c1=O | 8.28 |
| CCn1c(CO)nn(-c2nc(O[C@@H](C)C(F)(F)F)c(C(=O)Nc3nc(C)ccc3F)cc2F)c1=O | 7.78 |
| CCn1c(CO)nn(-c2nc(O[C@@H](C)C(F)(F)F)c(C(=O)Nc3c(OC)ccnc3OC)cc2F)c1=O | 8.38 |
| CCn1c(CO)nn(-c2nc(O[C@@H](C)C(F)(F)F)c(C(=O)Nc3c(OC)cncc3OC)cc2F)c1=O | 8.04 |
| CCn1c(CO)nn(-c2nc(O[C@@H](C)C(F)(F)F)c(C(=O)Nc3c(C)ccnc3C)cc2F)c1=O | 7.89 |

[Q] Could you tell me which pEC50 is on file for `CCn1c(CO)nn(-c2nc(O[C@@H](C)C(F)(F)F)c(C(=O)Nc3nccc(OC)c3Cl)cc2F)c1=O` ?
[A] 8.12

[Q] pEC50 for `CCn1c(CO)nn(-c2nc(O[C@@H](C)C(F)(F)F)c(C(=O)Nc3cc(C)cnc3Cl)cc2F)c1=O` ?
[A] 7.33

----------
target-desc: UniProt:Q02127
assay-name: DHODH Enzymatic Assay
reported-conditions: purified human DHODH; DCIP absorbance, end-point mode
Measured log10 of EC50 values are reported for all entries that follow.
In plain terms, each number is the log10 of measured EC50 in nM.

Example entries begin here.
| compound | target-desc | measured |
| --- | --- | --- |
| CCn1c(CO)nn(-c2nc(O[C@@H](C)C(F)(F)F)c(C(=O)Nc3nccnc3Cl)cc2F)c1=O | UniProt:Q02127 | 1.61 |
| CCn1c(CO)nn(-c2nc(O[C@@H](C)C(F)(F)F)c(C(=O)Nc3cnn(CCOC)c3)cc2F)c1=O | UniProt:Q02127 | 2.94 |
| CCn1c(CO)nn(-c2nc(O[C@@H](C)C(F)(F)F)c(C(=O)Nc3c(F)cccc3Cl)cc2F)c1=O | UniProt:Q02127 | -0.63 |
| Cc1n[nH]c(Cl)c1NC(=O)c1cc(F)c(-n2nc(CF)n(CCO)c2=O)nc1O[C@@H](C)C(F)(F)F | UniProt:Q02127 | 0.61 |
| CCn1c(CO)nn(-c2nc(O[C@@H](C)C(F)(F)F)c(C(=O)Nc3c(C)n[nH]c3C(F)(F)F)cc2F)c1=O | UniProt:Q02127 | 0.29 |
| Cc1ccnc(Cl)c1NC(=O)c1cc(F)c(-n2nc(CO)n(CC(F)F)c2=O)nc1O[C@@H](C)C(F)(F)F | UniProt:Q02127 | 1.36 |
| CCn1c(CF)nn(-c2nc(OC(C)C)c(C(=O)Nc3c(C)n[nH]c3Cl)cc2F)c1=O | UniProt:Q02127 | -0.07 |
| CCn1c(CO)nn(-c2nc(O[C@@H](C)C(F)(F)F)c(C(=O)Nc3c(OC)ccnc3Cl)cc2F)c1=O | UniProt:Q02127 | 0.59 |
| CCn1c(CO)nn(-c2nc(O[C@@H](C)C(F)(F)F)c(C(=O)Nc3c(C)cncc3F)cc2F)c1=O | UniProt:Q02127 | 0.75 |
| CCn1c(CO)nn(-c2nc(O[C@@H](C)C(F)(F)F)c(C(=O)Nc3c(C)cc(Cl)nc3OC)cc2F)c1=O | UniProt:Q02127 | 0.03 |

[Q] Record CCn1c(CO)nn(-c2nc(OC3CCOC3)c(C(=O)Nc3c(F)cccc3Cl)cc2F)c1=O (racemic) : what is its log10 of EC50 with UniProt:Q02127?
[A] 1.50

[Q] Return log10 of EC50 measured with UniProt:Q02127 given this compound: `CCn1c(CO)nn(-c2nc(O[C@@H](C)C(F)(F)F)c(C(=O)Nc3c[nH]nc3C(F)(F)F)cc2F)c1=O`
[A] 0.32

[Q] Requested read-out log10 of EC50, target or system UniProt:Q02127, entry `CCn1c(CO)nn(-c2nc(O[C@@H](C)C(F)(F)F)c(C(=O)Nc3ncccc3Cl)cc2F)c1=O`
[A] 0.72

[Q] Write down the reported log10 of EC50 of `CCOc1ncc(F)c(NC(=O)c2cc(F)c(-n3nc(CO)n(CC)c3=O)nc2O[C@@H](C)C(F)(F)F)n1` , test system: UniProt:Q02127.
[A] 2.69
